Give measured half-life for each item. Keep answers brief.
assay-details: Elimination half life in Sprague-Dawley rat at 1 mg/kg, iv measured for 24 hrs by LC-MS/MS analysis
Assay type: ADME, organism-based
experimental-setup: in vivo, read-out: beta t1/2 (converted)
Express your answer in min, writing the number without its unit.

I would be grateful if you could share the reported half-life for Cc1cc2c(C(N)=O)cccc2n1-c1nc2c(c(NCc3ccccc3)n1)CCCN2 . 22.8

I would be grateful if you could share the reported half-life for CONC(=O)c1cccc2c1cc(C)n2-c1nc2c(c(NCc3cccc(O)c3)n1)CCC2 . 50.4

I would be grateful if you could share the reported half-life for Cc1cc2c(C(N)=O)cccc2n1-c1nc2c(c(NCc3cccc(O)c3)n1)CCC2 . 168

---

assay-details: Tmax in Sprague-Dawley rat at 10 mg/kg, po measured for 30 hrs by LC-MS/MS analysis
Format: ADME, organism-based
experimental-setup: in vivo
observation-type: Tmax (min)
Express your answer in min, writing the number without its unit.

I would be grateful if you could share the reported Tmax for Cc1cc2c(C(N)=O)cccc2n1-c1nc2c(c(NCc3ccccc3)n1)CCCN2 . 30

I would be grateful if you could share the reported Tmax for CONC(=O)c1cccc2c1cc(C)n2-c1nc2c(c(NCc3cccc(O)c3)n1)CCC2 . 30

I would be grateful if you could share the reported Tmax for Cc1cc2c(C(N)=O)cccc2n1-c1nc2c(c(NCc3cccc(O)c3)n1)CCC2 . 30

---

assay-details: MRT in Sprague-Dawley rat at 10 mg/kg, po measured for 30 hrs by LC-MS/MS analysis
Type: ADME, organism-based
experimental-setup: in vivo
Give measured MRT for each item. Keep answers brief.
Express your answer in h, writing the number without its unit.

I would be grateful if you could share the reported MRT for CONC(=O)c1cccc2c1cc(C)n2-c1nc2c(c(NCc3cccc(O)c3)n1)CCC2 . 3.35

I would be grateful if you could share the reported MRT for Cc1cc2c(C(N)=O)cccc2n1-c1nc2c(c(NCc3ccccc3)n1)CCCN2 . 1.6

I would be grateful if you could share the reported MRT for Cc1cc2c(C(N)=O)cccc2n1-c1nc2c(c(NCc3cccc(O)c3)n1)CCC2 . 4.6

---

assay-details: Half life in monkey liver microsomes at 1 uM in presence of beta-NADPH measured for 60 mins by LC-MS/MS analysis
Format: ADME, Macaca mulatta, Microsome
experimental-setup: rhesus monkey
observation-type: half-life at 1 µM (min)
Express your answer in min, writing the number without its unit.

I would be grateful if you could share the reported half-life at 1 µM for Cc1cc2c(C(N)=O)cccc2n1-c1nc2c(c(NCc3cccc(O)c3)n1)CCC2 . 23.8

I would be grateful if you could share the reported half-life at 1 µM for Cc1cc2c(C(N)=O)cccc2n1-c1nc2c(c(NCc3ccccc3)n1)CCCN2 . 9.8

---

assay-details: Intrinsic clearance in monkey liver microsomes at 1 uM in presence of beta-NADPH measured for 60 mins by LC-MS/MS analysis
Type: ADME, Macaca mulatta, Microsome
experimental-setup: rhesus monkey, read-out: CLH
Give measured microsomal CLint at 1 µM for each item. Keep answers brief.
Express your answer in µL/min/mg, writing the number without its unit.

I would be grateful if you could share the reported microsomal CLint at 1 µM for Cc1cc2c(C(N)=O)cccc2n1-c1nc2c(c(NCc3ccccc3)n1)CCCN2 . 203

I would be grateful if you could share the reported microsomal CLint at 1 µM for Cc1cc2c(C(N)=O)cccc2n1-c1nc2c(c(NCc3cccc(O)c3)n1)CCC2 . 58.2

---

assay-details: Intrinsic clearance in rat liver microsomes at 1 uM in presence of beta-NADPH measured for 60 mins by LC-MS/MS analysis
Assay type: ADME, Microsome
experimental-setup: read-out: CLH
Give measured microsomal CLint at 1 µM for each item. Keep answers brief.
Express your answer in µL/min/mg, writing the number without its unit.

I would be grateful if you could share the reported microsomal CLint at 1 µM for Cc1cc2c(C(N)=O)cccc2n1-c1nc2c(c(NCc3ccccc3)n1)CCCN2 . 318

I would be grateful if you could share the reported microsomal CLint at 1 µM for Cc1cc2c(C(N)=O)cccc2n1-c1nc2c(c(NCc3cccc(O)c3)n1)CCC2 . 132

---

assay-details: Tmax in Sprague-Dawley rat at 1 mg/kg, iv measured for 24 hrs by LC-MS/MS analysis
Format: ADME, organism-based
experimental-setup: in vivo
observation-type: Tmax
Write the quantity with the unit trailing the number.

I would be grateful if you could share the reported Tmax for Cc1cc2c(C(N)=O)cccc2n1-c1nc2c(c(NCc3cccc(O)c3)n1)CCC2 . 4.8 min

---

Give measured Cmax for each item. Keep answers brief.
assay-details: Cmax in Sprague-Dawley rat at 10 mg/kg, po measured for 30 hrs by LC-MS/MS analysis
Assay type: ADME, organism-based
Set-up: dose 10 mg/kg, time 30 hrs, route po
experimental-setup: in vivo
Express your answer in ng/mL, writing the number without its unit.

I would be grateful if you could share the reported Cmax for Cc1cc2c(C(N)=O)cccc2n1-c1nc2c(c(NCc3ccccc3)n1)CCCN2 . 444

I would be grateful if you could share the reported Cmax for Cc1cc2c(C(N)=O)cccc2n1-c1nc2c(c(NCc3cccc(O)c3)n1)CCC2 . 130

I would be grateful if you could share the reported Cmax for CONC(=O)c1cccc2c1cc(C)n2-c1nc2c(c(NCc3cccc(O)c3)n1)CCC2 . 52.5

These entries and their values trace back to ChEMBL document CHEMBL5096214.
